assayed-system: M4 muscarinic receptor (Homo sapiens)
Construct: expressed in transfected cells; host or cells: CHO (M4-CHO)
experiment-description: Functional mobilization of intracellular calcium (FLIPR), M4-CHO cells
Format: cell-based
reported-conditions: 100% efficacy is the maximum response obtained using Carbachol as a control
assay-metric: Emax

molecule: CCCOC(=O)N1C2CCC1CC(N1CCC3(CC1)CN(S(=O)(=O)N(C)C)Cc1ccccc13)C2 (stereo not shown)
assay-metric: Emax
observed: 25 to 100%

molecule: CCCOC(=O)N1C2CCC1CC(N1CCC3(CC1)CN(C(=O)OC1CCC1)Cc1ccccc13)C2 (stereo not shown)
assay-metric: Emax
observed: 25 to 100%

molecule: CCC(=O)Oc1ccc(CN2CCC3(CC2)CN(C(C)=O)Cc2ccccc23)cc1
assay-metric: Emax
observed: < 25%

// below: Emax requested for another molecule
Quick check: Emax of CC(=O)N1Cc2ccccc2C2(CCN(Cc3cccc(C)n3)CC2)C1 ?
< 25%

* * *

assayed-system: M4 muscarinic receptor (Homo sapiens)
Construct: expressed in transfected cells; host or cells: CHO (M4-CHO)
experiment-description: Functional mobilization of intracellular calcium (FLIPR), M4-CHO cells
Assay type: cell-based
reported-conditions: 100% efficacy is the maximum response obtained using Carbachol as a control
Where a name gives a salt, the structure may show the parent alone.
assay-metric: Emax

Example compounds with recorded Emax:
compound: CC(=O)N1Cc2ccccc2C2(CCN(Cc3ccc(F)cc3F)CC2)C1
Emax: < 25%
--
compound: CC(=O)N1Cc2ccccc2C2(CCN(Cc3cc(C)ccc3F)CC2)C1
Emax: < 25%
--
compound: CCOC(=O)N1CCC(N2CCC3(CC2)CN(C(=O)OCC)Cc2ccccc23)CC1
Emax: 25 to 100%
--
compound: CCOC(=O)N1CCC(CN2CCC3(CC2)CN(S(C)(=O)=O)Cc2ccccc23)CC1
Emax: 25 to 100%
--
compound: CC(=O)N1Cc2ccccc2C2(CCN(C3CCN(C(=O)O[C@H]4CCOC4)CC3)CC2)C1
Emax: 25 to 100%

For every listed record, write down its Emax.
1. CS(=O)(=O)N1Cc2ccccc2C2(CCN(C3CC4CCC(C3)N4C(=O)O[C@H]3CCOC3)CC2)C1 (some centres unmarked)
2. CCOC(=O)N1CCC(CN2CCC3(CC2)CN(C(=O)c2cc4ccccc4s2)Cc2ccccc23)CC1
3. CSC(C)CCN1CCC2(CC1)NC(=O)c1ccccc12 (centres unmarked)

25 to 100%
25 to 100%
< 25%

Provide Emax for all items below, preserving their order.
1. CCOC(=O)N1CCC(N2CCC3(CC2)CN(C(=O)c2nc(C)oc2C)Cc2ccccc23)CC1
2. CC(=O)N1Cc2ccccc2C2(CCN(CC3CCCOC3)CC2)C1 (centres unmarked)
3. CC(=O)N1Cc2ccccc2C2(CCN(C3CCC(=O)CC3)CC2)C1
4. COC(=O)c1cccc(CN2CCC3(CC2)CN(C(C)=O)Cc2ccccc23)c1
5. CCOC(=O)N1CCC(CN2CCC3(CC2)CN(C(=O)C(C)C)Cc2ccccc23)CC1
6. CCCOC(=O)N1CCC(N2CCC3(CC2)CN(C(C)=O)Cc2ccccc23)CC1 [compound 129, hydrochloride]
7. CCOC(=O)N1C2CCC1CC(N1CCC3(CC1)CN(C(C)=O)Cc1ccccc13)C2 (centres unmarked)
8. CC(=O)N1Cc2ccccc2C2(CCN(Cc3cccnc3)CC2)C1

25 to 100%
< 25%
25 to 100%
< 25%
25 to 100%
25 to 100%
25 to 100%
< 25%

Report Emax for COC(=O)N1CC(CN2CCC3(CC2)CN(C(C)=O)Cc2ccccc23)C1 please.
< 25%

* * *

assayed-system: M4 muscarinic receptor (Homo sapiens)
Construct: expressed in transfected cells; host or cells: CHO (M4-CHO)
Sequence (P08173 1-479): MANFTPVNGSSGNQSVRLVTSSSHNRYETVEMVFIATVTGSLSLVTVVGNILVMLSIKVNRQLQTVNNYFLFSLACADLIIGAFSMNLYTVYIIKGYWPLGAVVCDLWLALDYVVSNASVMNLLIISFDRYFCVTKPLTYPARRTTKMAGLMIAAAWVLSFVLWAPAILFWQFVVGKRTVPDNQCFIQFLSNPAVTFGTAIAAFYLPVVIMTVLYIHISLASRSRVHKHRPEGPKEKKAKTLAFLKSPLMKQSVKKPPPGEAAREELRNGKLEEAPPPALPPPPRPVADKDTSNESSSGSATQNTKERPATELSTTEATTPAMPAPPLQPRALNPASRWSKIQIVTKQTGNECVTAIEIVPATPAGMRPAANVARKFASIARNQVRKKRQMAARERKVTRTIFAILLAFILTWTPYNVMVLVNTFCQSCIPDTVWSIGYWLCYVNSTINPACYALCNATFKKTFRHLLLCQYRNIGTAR
experiment-description: Functional mobilization of intracellular calcium (FLIPR), M4-CHO cells
Format: cell-based
reported-conditions: 100% efficacy is the maximum response obtained using Carbachol as a control
Structures can show the parent of a compound that is named as a salt.
Answer each item with its documented Emax.

compound: CC(C)(C)CCN1CCC2(CC1)c1ccccc1C(=O)N2Cc1ccccc1 [compound 130]
assayed-system: M4 muscarinic receptor (Homo sapiens)
observed: < 25%

compound: CCCCOC(=O)N1Cc2ccccc2C2(CCN(C3CCN(C(=O)OCC)CC3)CC2)C1 [compound 56]
assayed-system: M4 muscarinic receptor (Homo sapiens)
observed: 25 to 100%

compound: CCCS(=O)(=O)N1Cc2ccccc2C2(CCN(C3CC4CCC(C3)N4C(=O)OC3CCC3)CC2)C1 (stereo not shown) [compound 119]
assayed-system: M4 muscarinic receptor (Homo sapiens)
observed: 25 to 100%

compound: COCCOC(=O)N1CCC(N2CCC3(CC2)CN(C(C)=O)Cc2ccccc23)CC1 [compound 158]
assayed-system: M4 muscarinic receptor (Homo sapiens)
observed: 25 to 100%

compound: CCOC(=O)N1CCC(CN2CCC3(CC2)CN(C(=O)c2nc(C)oc2C)Cc2ccccc23)CC1 [compound 275]
assayed-system: M4 muscarinic receptor (Homo sapiens)
observed: 25 to 100%

Give Emax for each listed item.
1. CCOC(=O)N1CCC(N2CCC3(CC2)CN(C(=O)N2CCCC2)Cc2ccccc23)CC1 [compound 110]
2. CCOC(=O)N1CCC(N2CCC3(CC2)CN(S(=O)(=O)c2c(C)noc2C)Cc2ccccc23)CC1 [compound 25]
3. CCOC(=O)N1CCC(CN2CCC3(CC2)CN(C(=O)NC2CCCC2)Cc2ccccc23)CC1 [compound 127]

1: 25 to 100%; 2: 25 to 100%; 3: 25 to 100%

Below is a list of compounds. For each, state its recorded Emax.
1. CCOC(=O)N1CCC(N2CCC3(CC2)CN(C(=O)N(C)C)Cc2ccccc23)CC1 [compound 204]
2. CCOC(=O)N1C2CCC1CC(N1CCC3(CC1)CN(S(=O)(=O)Cc1ccccc1)Cc1ccccc13)C2 (stereo not shown) [compound 218]
3. O=C(OC1CCC1)N1Cc2ccccc2C2(CCN(C3CC4CCC(C3)N4C(=O)OC3CCC3)CC2)C1 (stereo not shown) [compound 194]
4. CCOC(=O)N1C2CCC1CC(N1CCC3(CC1)CN(S(=O)(=O)c1ccc(F)cc1)Cc1ccccc13)C2 (stereo not shown) [compound 205, hydrochloride]
5. CCOC(=O)N1CCC(CN2CCC3(CC2)CN(C(=O)OCC)Cc2ccccc23)CC1 [compound 11]
6. CCOC(=O)N1CCC(N2CCC3(CC2)CN(C(=O)c2cnon2)Cc2ccccc23)CC1 [compound 225]
7. CCOC(=O)N1CCC(N2CCC3(CC2)CN(C(=O)NC2CCCC2)Cc2ccccc23)CC1 [compound 283]

1. 25 to 100%
2. 25 to 100%
3. 25 to 100%
4. 25 to 100%
5. 25 to 100%
6. 25 to 100%
7. 25 to 100%

* * *

Assignment: determine reported Emax for the given compounds.
assayed-system: M4 muscarinic receptor (Homo sapiens)
Construct: expressed in transfected cells; host or cells: CHO (M4-CHO)
experiment-description: Functional mobilization of intracellular calcium (FLIPR), M4-CHO cells
Format: cell-based
reported-conditions: 100% efficacy is the maximum response obtained using Carbachol as a control

Consider the reported Emax for these compounds:
compound: CC(=O)N1Cc2ccccc2C2(CCN(Cc3nccs3)CC2)C1
assayed-system: M4 muscarinic receptor (Homo sapiens)
Emax: < 25%
//
compound: CC(=O)N1Cc2ccccc2C2(CCN(C3CC4CCC(C3)N4C(=O)OC3CCC3)CC2)C1 (centres unmarked)
assayed-system: M4 muscarinic receptor (Homo sapiens)
Emax: 25 to 100%

For each listed entry, give its Emax.
1. CC(=O)N1Cc2ccccc2C2(CCN(Cc3cccc(F)c3)CC2)C1
2. CCOC(=O)N1CCC(N2CCC3(CC2)CN(C(=O)c2ccccc2)Cc2ccccc23)CC1
3. CC(=O)N1Cc2ccccc2C2(CCN(CC3CCC(C)=CC3C)CC2)C1 (centres unmarked)
4. CCOC(=O)N1CCC(CN2CCC3(CC2)CN(C(=O)OC2CCCC2)Cc2ccccc23)CC1

["< 25%", "25 to 100%", "< 25%", "25 to 100%"]

Each of the following entries comes with a recorded value; kindly state Emax for each.
1. CCOC(=O)N1CC[C@@H](CN2CCC3(CC2)CN(C(C)=O)Cc2ccccc23)C1
2. CCOC(=O)N1CCC(N2CCC3(CC2)CN(C(=O)C2(C)CCCCC2)Cc2ccccc23)CC1
3. CCOC(=O)N1CCC(N2CCC3(CC2)CN(CC#Cc2ccccc2)Cc2ccccc23)CC1
4. CCOC(=O)N1C2CCC1CC(N1CCC3(CC1)CN(C(=O)OC1CCC1)Cc1ccccc13)C2 (centres unmarked)

1. 25 to 100%
2. < 25%
3. 25 to 100%
4. 25 to 100%

Look at each compound and report its Emax.
1. CCOC(=O)N1CCC(N2CCC3(CC2)CN(C(=O)Nc2c(C)noc2C)Cc2ccccc23)CC1
2. O=C1c2ccccc2C2(CCN([C@@H]3C[C@@H]4CC[C@@H]3C4)CC2)N1Cc1ccccc1
3. CCOC(=O)N1C2CCC1CC(N1CCC3(CC1)CN(S(=O)(=O)c1sc(NC(C)=O)nc1C)Cc1ccccc13)C2 (centres unmarked)
4. CCOC(=O)N1CCC(N2CCC3(CC2)OC(=O)c2cc(Cl)ccc23)CC1

1: < 25%; 2: < 25%; 3: 25 to 100%; 4: 25 to 100%

State the recorded Emax for every item in the following list.
1. CC(=O)N1Cc2ccccc2C2(CCN(CC3CCOCC3)CC2)C1
2. CCOC(=O)N1C2CCC1CC(N1CCC3(CC1)CN(C(=O)c1ccno1)Cc1ccccc13)C2 (centres unmarked)
3. CCOC(=O)N1CCC(N2CCC3(CC2)OC(=O)c2ccccc23)CC1
4. CC(=O)N1Cc2ccccc2C2(CCN(Cc3cc4ccccc4o3)CC2)C1
5. CCOC(=O)N1C2CCC1CC(N1CCC3(CC1)CN(C(=O)OC(C)C)Cc1ccccc13)C2 (centres unmarked)
6. CCOC(=O)N1C2CCC1CC(N1CCC3(CC1)CN(C(=O)c1ccc(F)cc1)Cc1ccccc13)C2 (centres unmarked)

["< 25%", "25 to 100%", "25 to 100%", "< 25%", "25 to 100%", "< 25%"]
